- Assay protocol: UV absorption characteristics of component (A), UV-visible spectrophotometer
- Type: physicochemical
- Recorded conditions: 100 µM chloroform solution, 10-mm quartz cell; at the maximum absorption wavelength
This listing pairs molecules with measured Maximum absorption wavelength Molar absorption coefficient.
Parameter: Maximum absorption wavelength Molar absorption coefficient

| Molecule | Result |
| --- | --- |
| Cc1cc(C(C)(C)C)ccc1Sc1ccc(C(=O)c2ccc(Sc3ccc(C(C)(C)C)cc3C)cc2)cc1 | 32600 L/mol/cm |
| Cc1cccc(Sc2ccc(C(=O)c3ccc(Sc4cccc(C)c4)cc3)cc2)c1 | 30730 L/mol/cm |
| Cc1ccc(Sc2ccc(C(=O)c3ccc(Sc4ccc(C)cc4C)cc3)cc2)c(C)c1 | 31640 L/mol/cm |
| CC(C)c1ccc(Sc2ccc(C(=O)c3ccc(Sc4ccc(C(C)C)cc4)cc3)cc2)cc1 | 31440 L/mol/cm |
| CSc1ccc(C(=O)c2ccc(SC)cc2)cc1 [A-6, 4,4'-Bis(methylthio)benzophenone, reference compound] | 25100 L/mol/cm |
| CCCCCCCCSc1ccc(C(=O)c2ccc(SCCCCCCCC)cc2)cc1 [A-7, 4,4'-Bis(octylthio)benzophenone, reference compound] | 24800 L/mol/cm |
| Cc1ccc(C)c(Sc2ccc(C(=O)c3ccc(Sc4cc(C)ccc4C)cc3)cc2)c1 | 31590 L/mol/cm |

* * *

This listing pairs compounds with measured Maximum absorption wavelength Wavelength.
- Assay protocol: UV absorption characteristics of component (A), UV-visible spectrophotometer
- Format: physicochemical
- Recorded conditions: 100 µM chloroform solution, 10-mm quartz cell
Parameter: Maximum absorption wavelength Wavelength

| Compound | Result |
| --- | --- |
| CC(C)(C)c1ccc(Sc2ccc(C(=O)c3ccc(Sc4ccc(C(C)(C)C)cc4)cc3)cc2)cc1 | 328 nm |
| Cc1ccc(Sc2ccc(C(=O)c3ccc(Sc4ccc(C)cc4C)cc3)cc2)c(C)c1 | 329 nm |
| CCCCCCCCSc1ccc(C(=O)c2ccc(SCCCCCCCC)cc2)cc1 [A-7, 4,4'-Bis(octylthio)benzophenone, reference compound] | 326 nm |
